Assay: Caco-2 permeability assay
Assay type: in vitro ADME
Conditions: human, A → B
measuredEndpoint: Papp A→B (×10⁻⁶ cm/s)
Give the number; ×10⁻⁶ cm/s is assumed, so skip it.

Ask: Data request, read-out Papp A→B, for `Cc1ccc(-c2cc(S(=O)(=O)c3ccc(CN)s3)ccc2S(C)(=O)=O)cc1.Cl`
Result: 18

---

Biological target: LOX (Sus scrofa, UniProt P45845)
Construct: LOX enzyme was extracted from pig skin by the method of Shackleton and Hulmes; from tissue; host or cells: pig skin
Sequence (P45845 whole entry): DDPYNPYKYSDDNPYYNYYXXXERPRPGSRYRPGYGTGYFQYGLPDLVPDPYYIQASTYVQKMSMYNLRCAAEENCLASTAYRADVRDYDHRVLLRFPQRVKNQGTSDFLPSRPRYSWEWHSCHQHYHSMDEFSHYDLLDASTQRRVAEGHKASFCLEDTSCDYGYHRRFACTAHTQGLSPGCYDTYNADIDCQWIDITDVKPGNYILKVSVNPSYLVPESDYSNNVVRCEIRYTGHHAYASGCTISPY
Assay: LOX enzyme activity assay (HRP-coupled fluorescent, cadaverine substrate);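 note: LOX isolated from porcine skin, nine-point dilution series starting at 100 µM, 20 min preincubation with enzyme, BAPN serving as positive control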
Type: biochemical, pig
Details: n ≥ 2; n = 2: individual values; n > 2: geometric mean [95% CI]; 20 min preincubation; read-out: LOX IC50
IC50 overview
Give the number; µM is assumed, so skip it.

Ask: Data request, read-out IC50, for `CS(=O)(=O)c1ccc(-c2ccc(CN)s2)cc1`
Result: 13

Ask: Cool, now `CN1CCCN(S(=O)(=O)c2ccc(CN)s2)CC1`
Result: 3.1

Ask: Cool, now `CCNC(=O)N1CCCN(S(=O)(=O)c2ccc(CN)s2)CC1`
Result: 2.1
